system: C-C chemokine receptor type 10 (Homo sapiens) (UniProt P46092)
Sequence (P46092 whole entry): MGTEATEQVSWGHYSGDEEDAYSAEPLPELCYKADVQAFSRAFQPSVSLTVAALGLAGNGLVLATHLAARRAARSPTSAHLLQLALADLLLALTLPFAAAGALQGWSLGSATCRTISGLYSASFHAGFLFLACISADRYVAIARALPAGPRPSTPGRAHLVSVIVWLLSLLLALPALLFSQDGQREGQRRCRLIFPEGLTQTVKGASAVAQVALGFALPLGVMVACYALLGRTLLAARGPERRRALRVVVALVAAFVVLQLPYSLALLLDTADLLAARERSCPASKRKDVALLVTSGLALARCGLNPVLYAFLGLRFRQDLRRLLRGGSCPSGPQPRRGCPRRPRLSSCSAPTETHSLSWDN
methodDescription: Antagonist activity against human CCR10 expressed in human KJMGER8 cells assessed as inhibition of human recombinant CTACK-induced increase in intracellular calcium level at 100 nmol/L pre-incubated for 30 mins before human recombinant CTACK stimulation for 5 mins by FLIPR assay
Format: functional, cell-based
endpointLabel: inhibition (%)

| molSmiles | system | observed |
| --- | --- | --- |
| Cc1cc(F)ccc1Nc1c(C(=O)N2CCC(c3ccccc3)CC2)cnc2c(S(=O)(=O)NC(=O)N3CCOCC3)cnn12 | C-C chemokine receptor type 10 (Homo sapiens) (UniProt P46092) | 85.9 |
| Cc1ccc(Cl)c(Nc2c(C(=O)N3CCC4(CC3)OCc3ccccc34)cnc3c(S(=O)(=O)NC(=O)NCC(F)(F)F)cnn23)c1 | C-C chemokine receptor type 10 (Homo sapiens) (UniProt P46092) | 75.3 |
| Cc1cc(F)ccc1Nc1c(C(=O)N2CCC(c3ccccc3)CC2)cnc2c(S(=O)(=O)NC(=O)C3CC3)cnn12 | C-C chemokine receptor type 10 (Homo sapiens) (UniProt P46092) | 93.4 |

###

system: C-C chemokine receptor type 10 (Homo sapiens)
methodDescription: Antagonist activity against human CCR10 expressed in human KJMGER8 cells assessed as inhibition of human recombinant CTACK-induced increase in intracellular calcium level at 100 nmol/L pre-incubated for 30 mins before human recombinant CTACK stimulation for 5 mins by FLIPR assay
Assay type: functional, cell-based
The entries below come with measured inhibition values attached.

Example entries begin here.
| molSmiles | observed |
| --- | --- |
| CCC(=O)NS(=O)(=O)c1cnn2c(Nc3cc(F)ccc3F)c(C(=O)N3CCC(c4ccc(F)cc4)CC3)cnc12 | > 100% |
| CCNS(=O)(=O)c1cnn2c(Nc3ccc(F)cc3C)c(C(=O)N3CCC(c4ccccc4)CC3)cnc12 | > 100% |
| COC(=O)NS(=O)(=O)c1cnn2c(Nc3ccc(F)cc3C)c(C(=O)N3CCC(c4ccccc4)CC3)cnc12 | 90.7% |
| CCC(=O)NS(=O)(=O)c1cnn2c(Nc3cc(C)ccc3F)c(C(=O)N3CCC(c4ccc(F)cc4)CC3)cnc12 | > 100% |
| CCC(=O)NS(=O)(=O)c1cnn2c(Nc3cc(C(F)(F)F)ccc3Cl)c(C(=O)N3CCC(c4ccc(F)cc4)CC3)cnc12 | > 100% |
| CCN(CC)S(=O)(=O)c1cnn2c(Nc3ccc(F)cc3C)c(C(=O)N3CCC(c4ccccc4)CC3)cnc12 | > 100% |
| Cc1cc(F)ccc1Nc1c(C(=O)N2CCC(c3ccccc3)CC2)cnc2c(S(=O)(=O)NC(=O)CO)cnn12 | > 100% |
| Cc1ccc(Cl)c(Nc2c(C(=O)N3CCC4(CC3)OCc3ccccc34)cnc3c(S(=O)(=O)NC(=O)C4(C)COC4)cnn23)c1 | > 100% |

Recall and state the measured inhibition for Cc1ccc(Cl)c(Nc2c(C(=O)N3CCC(c4ccc(F)cc4)CC3)cnc3c(S(=O)(=O)NC(N)=O)cnn23)c1 . > 100%

Recall and state the measured inhibition for Cc1cc(F)ccc1Nc1c(C(=O)N2CCC(c3ccc(F)cc3)CC2)cnc2c(S(=O)(=O)NC3CC3)cnn12 . > 100%

###

system: C-C chemokine receptor type 10 (Homo sapiens)
methodDescription: Antagonist activity against human CCR10 expressed in human KJMGER8 cells assessed as inhibition of human recombinant CTACK-induced increase in intracellular calcium level at 100 nmol/L pre-incubated for 30 mins before human recombinant CTACK stimulation for 5 mins by FLIPR assay
Assay type: functional, cell-based
The entries below come with measured inhibition values attached.

Example entries begin here.
| molSmiles | inhibition |
| --- | --- |
| CCC(=O)NS(=O)(=O)c1cnn2c(Nc3ccc(Cl)cc3Cl)c(C(=O)N3CCC(c4ccc(F)cc4)CC3)cnc12 | 97% |
| COC(=O)NS(=O)(=O)c1cnn2c(Nc3cc(C)ccc3C)c(C(=O)N3CCC(c4ccccc4)CC3)cnc12 | > 100% |
| Cc1cc(Cl)ccc1Nc1c(C(=O)N2CCC3(CC2)OCc2ccccc23)cnc2c(S(=O)(=O)NC(=O)C3CC3)cnn12 | > 100% |

Recall and state the measured inhibition for CONS(=O)(=O)c1cnn2c(Nc3cc(Cl)ccc3Cl)c(C(=O)N3CCC(c4ccc(F)cc4)CC3)cnc12 . > 100%

###

system: C-C chemokine receptor type 10 (Homo sapiens)
methodDescription: Antagonist activity against human CCR10 expressed in human KJMGER8 cells assessed as inhibition of human recombinant CTACK-induced increase in intracellular calcium level at 100 nmol/L pre-incubated for 30 mins before human recombinant CTACK stimulation for 5 mins by FLIPR assay
Assay type: functional, cell-based
endpointLabel: inhibition (%)

| molSmiles | valueUnits | inhibition |
| --- | --- | --- |
| CCNC(=O)NS(=O)(=O)c1cnn2c(Nc3cc(C)ccc3Cl)c(C(=O)N3CC4(C3)CN(c3ccc(F)cc3)C4)cnc12 | % | 24.3 |

1: COCCNS(=O)(=O)c1cnn2c(Nc3ccccc3Cl)c(C(=O)N3CCC(c4ccc(F)cc4)CC3)cnc12
2: CCC(=O)NS(=O)(=O)c1cnn2c(Nc3cc(C)ccc3Cl)c(C(=O)N3CC4(C3)CN(c3ccc(F)cc3)C4)cnc12
3: Cc1ccc(Cl)c(Nc2c(C(=O)N3CCC4(CC3)OCc3ccccc34)cnc3c(S(=O)(=O)NC(=O)NC4CCOCC4)cnn23)c1
Exam item: list the entries in increasing order of inhibition. // format: requested-order list of labels 1, 3, 2
(1: 28.9%, 3: 62.3%, 2: 90.2%)

###

system: C-C chemokine receptor type 10 (Homo sapiens)
methodDescription: Antagonist activity against human CCR10 expressed in human KJMGER8 cells assessed as inhibition of human recombinant CTACK-induced increase in intracellular calcium level at 100 nmol/L pre-incubated for 30 mins before human recombinant CTACK stimulation for 5 mins by FLIPR assay
Format: functional, cell-based
endpointLabel: inhibition (%)

Example entries begin here.
| molSmiles | inhibition (%) |
| --- | --- |
| CCNS(=O)(=O)c1cnn2c(Nc3cc(C)ccc3Cl)c(C(=O)N3CCC(c4ccc(F)cc4)CC3)cnc12 | 87.8 |
| CCNC(=O)NS(=O)(=O)c1cnn2c(Nc3ccc(Cl)cc3Cl)c(C(=O)N3CCC(c4ccc(F)cc4)CC3)cnc12 | 90.7 |

P: COC(=O)NS(=O)(=O)c1cnn2c(Nc3ccccc3Cl)c(C(=O)N3CCC(c4ccccc4)CC3)cnc12
Q: Cc1cc(F)ccc1Nc1c(C(=O)N2CCC(c3ccccc3)CC2)cnc2c(S(=O)(=O)/N=C/N(C)C)cnn12
Hello, I am sorting some records. Could you say if P or Q has the smaller inhibition value? Answer format: the label of the selected item. Q

###

The entries below come with measured inhibition values attached.
system: C-C chemokine receptor type 10 (Homo sapiens) (UniProt P46092)
methodDescription: Antagonist activity against human CCR10 expressed in human KJMGER8 cells assessed as inhibition of human recombinant CTACK-induced increase in intracellular calcium level at 100 nmol/L pre-incubated for 30 mins before human recombinant CTACK stimulation for 5 mins by FLIPR assay
Format: functional, cell-based

Example entries begin here.
| molSmiles | observed |
| --- | --- |
| CCC(=O)NS(=O)(=O)c1cnn2c(Nc3cc(C)ccc3Cl)c(C(=O)N3CCC(c4ccc(F)cc4)CC3)cnc12 | > 100% |
| CCNC(=O)NS(=O)(=O)c1cnn2c(Nc3ccc(C)cc3F)c(C(=O)N3CCC4(CC3)OCc3ccccc34)cnc12 | > 100% |
| CCNC(=O)NS(=O)(=O)c1cnn2c(Nc3cc(C)ccc3Cl)c(C(=O)N3CCC4(CC3)OCc3ccccc34)cnc12 | 95.2% |

Next item in the queue.
Recall and state the measured inhibition for O=C(c1cnc2c(S(=O)(=O)Nc3nncs3)cnn2c1Nc1cc(Cl)ccc1Cl)N1CCC(c2ccc(F)cc2)CC1 . > 100%

###

system: C-C chemokine receptor type 10 (Homo sapiens) (UniProt P46092)
methodDescription: Antagonist activity against human CCR10 expressed in human KJMGER8 cells assessed as inhibition of human recombinant CTACK-induced increase in intracellular calcium level at 100 nmol/L pre-incubated for 30 mins before human recombinant CTACK stimulation for 5 mins by FLIPR assay
Format: functional, cell-based
endpointLabel: inhibition (%)

| molSmiles | inhibition (%) |
| --- | --- |
| CCNC(=O)NS(=O)(=O)c1cnn2c(Nc3ccc(F)cc3C)c(C(=O)N3CCC4(CC3)OCc3ccccc34)cnc12 | 92 |
| Cc1cc(F)ccc1Nc1c(C(=O)N2CCC(c3ccccc3)CC2)cnc2c(S(=O)(=O)NS(C)(=O)=O)cnn12 | 88.8 |

###

system: UniProt P46092
methodDescription: Antagonist activity against human CCR10 expressed in human KJMGER8 cells assessed as inhibition of human recombinant CTACK-induced increase in intracellular calcium level at 100 nmol/L pre-incubated for 30 mins before human recombinant CTACK stimulation for 5 mins by FLIPR assay
Type: functional, cell-based
endpointLabel: inhibition

Example entries begin here.
| molSmiles | observed |
| --- | --- |
| CC(=O)NS(=O)(=O)c1cnn2c(Nc3cc(C)ccc3Cl)c(C(=O)N3CCC4(CC3)OCc3ccccc34)cnc12 | > 100% |
| COCC(=O)NS(=O)(=O)c1cnn2c(Nc3ccc(F)cc3C)c(C(=O)N3CCC(c4ccccc4)CC3)cnc12 | 94.2% |
| CCNC(=O)NS(=O)(=O)c1cnn2c(Nc3cc(F)ccc3Cl)c(C(=O)N3CCC(c4ccc(F)cc4)CC3)cnc12 | > 100% |

Next item in the queue.
Recall and state the measured inhibition for CCNC(=O)NS(=O)(=O)c1cnn2c(Nc3ccccc3Cl)c(C(=O)N3CCC(c4ccc(F)cc4)CC3)cnc12 . > 100%
